Some variants, each annotated with its measured abundance fitness.
B1: POU domain, class 3, transcription factor 2, residues 356 to 411; numbered along this chain, P20265 (parent)
chain: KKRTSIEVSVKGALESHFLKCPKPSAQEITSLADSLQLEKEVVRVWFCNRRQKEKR

# Variants of: B1
# Protocol Text: abundance fitness (aPCA) (normalised: wild type 0, dead -1); higher = more abundant; growth selection in yeast, the domain comes from the species named
# Setup Conditions: Homo sapiens

Mutant Code | abundance fitness
C21P | -1.14
V10R | -0.266
I6W | -0.289
V45L | -0.033
D34L | 0.098
E54W | -0.581
S9G | 0.046
L19E | -0.026
S35P | -0.961
A26D | 0.151
K55E | 0.093
V8N | 0.212
Q52D | 0.015
V45P | -0.784
L36D | -0.842
Q52H | -0.002
L14C | -0.78
A33H | -0.789
A13D | -0.356
Q52R | -0.104
R3N | 0.13
E54Q | -0.177
K11N | -0.143
E28I | -0.52
L36C | -0.428
K11L | 0.03
K40M | -0.013
E41A | -0.238
K11W | -0.039
L19S | -0.03
R56P | -0.58
E7T | 0.221
K20D | -0.46
E28S | -0.455
K53R | -0.457
Q27E | -0.155
E28T | -0.088
A13N | -0.211
R44W | -0.412
E15G | -0.885
A33M | -0.759
P24S | -0.998
K11Y | -0.239
L36I | -0.7
S25M | -0.446
Q52F | -0.106
C48P | -0.948
E41L | -0.881
T30Q | 0.078
S35A | -0.086
L19V | -0.056
F18C | -0.914
V45K | -0.057
S5T | 0.173
V43P | -0.891
S5P | 0.007
S35H | -0.026
Q52L | -0.125
K23F | -0.163
G12R | -0.045
D34V | -0.04
S25H | -0.467
Q52I | -0.145
V45C | -0.294
F47C | -0.937
L19C | -0.114
S25F | -0.902
L32H | -0.857
L32T | -0.943
Q37V | -0.394
A13E | -0.067
K20A | -0.319
K55F | -0.167
A13M | 0.024
P22Q | 0.137
Q52P | -0.956
V8E | 0.093
E41D | -0.114
L32A | -0.994
R56A | -0.335
L19R | 0.006
C48T | -0.105
E41G | -0.408
K1V | -0.072
H17T | -0.1
A33G | -0.806
S9V | -0.123
P22N | -0.337
V45F | -0.175
S5C | 0.033
T30V | -0.016
